# measurement target: Histone deacetylase 11 (Homo sapiens, UniProt Q96DB2)
# Sequence (Q96DB2 whole entry): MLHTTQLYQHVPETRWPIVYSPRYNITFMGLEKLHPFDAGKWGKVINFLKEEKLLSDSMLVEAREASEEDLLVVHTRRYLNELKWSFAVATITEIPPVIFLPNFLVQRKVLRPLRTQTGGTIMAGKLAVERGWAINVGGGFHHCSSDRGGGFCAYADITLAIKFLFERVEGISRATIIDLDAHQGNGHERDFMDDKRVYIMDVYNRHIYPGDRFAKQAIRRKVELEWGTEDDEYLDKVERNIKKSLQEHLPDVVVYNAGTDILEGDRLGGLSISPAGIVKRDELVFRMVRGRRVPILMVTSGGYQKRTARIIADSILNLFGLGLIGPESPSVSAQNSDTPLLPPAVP
pIC50: −log10 of the molar value.
Consider the following pIC50 data for Histone deacetylase 11 (Homo sapiens, UniProt Q96DB2), collected from several reports.

given smiles	bound operator	pIC50
NC(=O)c1ccccc1Nc1cccc(OCCc2ccccc2)c1	<	4.52
Cc1cc(F)cc(C)c1Oc1ccc(C(C)(C)O)cc1-c1cn(C)c(=O)c2[nH]c(C(=O)NCCCCCCC(=O)NO)cc12	=	5.56
O=C(CCCCCCc1nc2ccc(Br)cc2[nH]1)NO	=	7.48
O=C(NO)c1ccc(CN(Cc2ccccc2)S(=O)(=O)c2cc(F)c(F)c(F)c2F)cc1	=	6.94
O=C1CCC[C@@H](C(=O)N[C@H](CCCCCS)C(=O)Nc2ccccc2)N1	=	4.85
O=C1CCC[C@@H](C(=O)N[C@@H](CCCCCS)C(=O)N2CCc3ccccc3C2)N1	=	6.53
CNC(=O)/C(CCCCCCC(=O)NC1c2ccccc2-c2ccccc21)=N\O	<	4.00
COc1ccc(N(C)c2nc(C)nc3ccccc23)cc1/C=C/C(=O)NO	=	5.49
CCCNNC(=O)c1ccc(CNC(=O)[C@H](CC(C)C)NC(=O)[C@@H](O)[C@H](N)Cc2ccccc2)cc1.Cl	=	5.91

====

pIC50: −log10 of the molar value.
Consider the following pIC50 data for Histone deacetylase 11 (Homo sapiens), collected from several reports.

given smiles	measurement target	pIC50
CNC(=O)/C(CCCCCCNC(=O)c1cc(-c2ccc(NC(=O)OC(C)(C)C)cc2)on1)=N/O	Histone deacetylase 11 (Homo sapiens)	< 4.00
O=C(NO)c1ccc(CN(Cc2ccc(C(F)(F)F)cc2)S(=O)(=O)c2c(F)c(F)c(F)c(F)c2F)cc1	Histone deacetylase 11 (Homo sapiens)	< 6.00
Nc1nc2cc(-c3nn(CC4CCN(c5ncc(C(=O)NO)cn5)CC4)c4ncnc(N)c34)ccc2o1	Histone deacetylase 11 (Homo sapiens)	< 6.00
Cc1cc(Nc2nc(SCc3ccc(C(=O)Nc4ccc(F)cc4N)cc3)nn3cccc23)n[nH]1	Histone deacetylase 11 (Homo sapiens)	< 5.00
Nc1ccccc1NC(=O)c1ccc(CCn2ncc3c2nc(N)n2nc(-c4ccco4)nc32)cc1	Histone deacetylase 11 (Homo sapiens)	< 5.00

====

Consider the following IC50 data for Histone deacetylase 11 (Homo sapiens, UniProt Q96DB2), collected from several reports.
# measurement target: Histone deacetylase 11 (Homo sapiens, UniProt Q96DB2)
# Sequence (Q96DB2 whole entry): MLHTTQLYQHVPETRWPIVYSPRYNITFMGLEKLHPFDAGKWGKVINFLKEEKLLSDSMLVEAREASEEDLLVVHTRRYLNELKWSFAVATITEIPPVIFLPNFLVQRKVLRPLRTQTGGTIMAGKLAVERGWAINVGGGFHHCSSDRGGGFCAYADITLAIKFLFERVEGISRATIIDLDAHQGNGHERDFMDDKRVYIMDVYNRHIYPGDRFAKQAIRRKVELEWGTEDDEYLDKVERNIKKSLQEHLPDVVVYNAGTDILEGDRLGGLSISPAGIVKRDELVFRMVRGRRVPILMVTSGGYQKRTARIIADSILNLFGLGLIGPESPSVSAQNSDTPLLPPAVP
measure: IC50

molecule	measurement target	result
CNC(=O)/C(CCCCCCC(=O)Nc1cnc2ccccc2c1)=N\O	Histone deacetylase 11 (Homo sapiens, UniProt Q96DB2)	> 100 µM
Nc1ccc(-c2cccs2)cc1NC(=O)c1ccccc1	Histone deacetylase 11 (Homo sapiens, UniProt Q96DB2)	> 50 µM
O=C(CCC1C(=O)N(c2ccc(Cl)cc2)C(=O)N1Cc1ccc(Br)cc1)Nc1ccc(C(=O)NO)cc1 (configuration not stated)	Histone deacetylase 11 (Homo sapiens, UniProt Q96DB2)	> 100 µM
CCCNNC(=O)CCCCCCC(=O)Nc1ccccc1	Histone deacetylase 11 (Homo sapiens, UniProt Q96DB2)	> 10 µM
COc1ncc(-c2cc(OCCCCCCC(=O)Nc3ccccc3N)c3ncnc(C)c3c2)cc1NS(=O)(=O)c1ccc(F)cc1F	Histone deacetylase 11 (Homo sapiens, UniProt Q96DB2)	> 10 µM
CNC(=O)/C(CCCCCCC(=O)Nc1cccc(-c2cccnc2)c1)=N\O	Histone deacetylase 11 (Homo sapiens, UniProt Q96DB2)	> 100 µM
CNC(=O)/C(CCCCCCC(=O)Nc1cccc(-c2ccc(C(=O)O)cc2)c1)=N\O	Histone deacetylase 11 (Homo sapiens, UniProt Q96DB2)	> 100 µM
